- tgt: NS3 (nonstructural protein 3, protease-helicase) (Hepatitis C virus genotype 1b (con1b), UniProt Q9WMX2 1027-1657)
- Sequence (Q9WMX2 1027-1657): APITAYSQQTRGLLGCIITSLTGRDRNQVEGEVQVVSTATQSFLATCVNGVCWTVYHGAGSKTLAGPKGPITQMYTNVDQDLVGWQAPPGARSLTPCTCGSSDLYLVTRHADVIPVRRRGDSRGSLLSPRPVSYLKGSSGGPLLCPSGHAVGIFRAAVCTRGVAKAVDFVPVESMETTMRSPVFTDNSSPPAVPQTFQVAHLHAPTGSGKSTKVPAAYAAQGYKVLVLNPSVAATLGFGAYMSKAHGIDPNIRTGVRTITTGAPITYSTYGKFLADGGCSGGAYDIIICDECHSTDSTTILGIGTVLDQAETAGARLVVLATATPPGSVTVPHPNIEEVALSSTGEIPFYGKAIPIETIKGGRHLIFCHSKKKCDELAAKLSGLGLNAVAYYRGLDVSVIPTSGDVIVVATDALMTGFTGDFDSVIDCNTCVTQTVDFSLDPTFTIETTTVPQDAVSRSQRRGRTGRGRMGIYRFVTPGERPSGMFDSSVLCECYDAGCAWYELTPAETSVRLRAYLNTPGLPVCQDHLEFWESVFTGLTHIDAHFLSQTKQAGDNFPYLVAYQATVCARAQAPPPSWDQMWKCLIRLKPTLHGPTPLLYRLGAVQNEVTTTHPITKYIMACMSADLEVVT
- procedureText: fluorescence anisotropy; 100 mM KCl; 25 mM MOPS pH 6.5, 100 mM KCl, 0.1 mM EDTA, 2 mM beta-mercaptoethanol, 0.1 mg/ml BSA, 37 C, 30 min; RNA 2 nM unless stated, folded in 100 mM KCl
- assayContext: protein: recombinant; label: 3'-6FAM; parallel G4 (three-tetrad)
measurementName: Kd

AAGGGCUGCGGGUGGGCAGGGAA (structured_RNA) [HCVG4]; 17 nM

Query block: // lookup Kd for AAGGGUGGGUGGGUGGGAA (structured_RNA) [NONHCVG4]
Result block: 23 nM
